Biological target: dengue type 3 virus (DENV-3), strain H87, virions (dengue type 3 virus, UniProt P27915 281-773; P27915 115-280)
Experiment: ELISA, virion-coated plate, Fab from ~300 µg/ml
Measured ELISA titer of Fab binding, listed per entry for reference.
METRIC_NAME: ELISA titer of Fab binding

BINDER: chimpanzee Fab 3E4 (Fab, V domains shown) VH: VQLLEQSGAEVKKPGGSVKVSCKVSGGTFSRNPISWVRQAPGQGLEWMSVIVPIVGTTKHAQKFQGRVTITADESTSTAYMELSSLRSEDTAVYYCATYRRYADVSSYSEYWGQGTLVTVSS VL: ELTQSPLSLPVTLGQPASISCRSSQNLVHSDGNTYLSWIQQRPGQPPRLLIYKVSNRDSGVPDRFSGSGAGTDFTLKITRVEAEDVGLYYCVQGVQFPITFGQGTKLEIKR
METRIC_NAME: ELISA titer of Fab binding
VALUE_OBSERVED: 4.61 log10 of reciprocal dilution
--
BINDER: chimpanzee Fab 5D9 (Fab, V domains shown) VH: EVQLLESGPGLVKPSETLSLTCTVSGGSISDFYWSWLRQSPGKGLEWIGVAHSRVSAYYNPSLKSRVTISVDTSKNQLSLRLSAVTAADAALYYCARQGTGTTGVSEDPFDLWGQGTKVIVSL VL: ELTQSPSSLSASVGDRVTITCRASQGISNRLNWYQQKPGQGPKFLMYDASSLVSGVPSRFSGSGSGTDFTLTISSLQPEDFAVYYCQQFNSYPLTFGGGTKLEIKR
METRIC_NAME: ELISA titer of Fab binding
VALUE_OBSERVED: < 1 log10 of reciprocal dilution
--
BINDER: chimpanzee Fab 5A7 (Fab, V domains shown) VH: EVQLLESGGGLVQPGGSLRLSCAASGVTFSSYWMHWVRQAPGKGLEWVSRINSDGSSTNYADSVEGRFTISRDNAKNTLYLQMNSLRAEDTAVYYCSRGGLWDWSPRRIEETKTPFDYWGQGTLVTVSS VL: ELTQGPATLSLSPGERATLSCRAGQSLDSSLLSWYQQKPGQAPRLLMYDASTRAPGVPARFSGSGSGTDFTLTISSLQPEDFAVYYCQQHYNLPRTFGQGTKLEIKR
METRIC_NAME: ELISA titer of Fab binding
VALUE_OBSERVED: 2.51 log10 of reciprocal dilution
